target: human CA-XII (Homo sapiens, UniProt O43570); construct: purchased Creative BioMart CA12-261H; experiment: Surface Plasmon Resonance (SPR) binding kinetics to recombinant human CA-XII (Biacore 8K, single-cycle kinetics, 1:1 binding model); conditions: Chelated Metal: Lu-175, 25° C., pH 7.4, read-out: CAXII KD
Sequence (O43570 25-354): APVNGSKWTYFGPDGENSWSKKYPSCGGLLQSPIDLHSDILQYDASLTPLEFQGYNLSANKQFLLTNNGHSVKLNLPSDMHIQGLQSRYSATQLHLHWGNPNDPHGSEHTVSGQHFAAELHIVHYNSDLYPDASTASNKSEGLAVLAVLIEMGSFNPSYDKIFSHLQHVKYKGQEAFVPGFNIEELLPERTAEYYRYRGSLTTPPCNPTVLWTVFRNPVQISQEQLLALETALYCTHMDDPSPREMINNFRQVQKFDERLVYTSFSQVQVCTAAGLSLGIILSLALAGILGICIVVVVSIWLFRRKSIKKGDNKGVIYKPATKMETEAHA
pKd: −log10 of the molar value.
pKd by entry:

Here's what some known entries look like.
NS(=O)(=O)c1nnc(NC(=O)C23CC(c4cn(CCNC(=O)[C@@H]5CN(C(=O)CN6CCN(CC(=O)O)CCN(CC(=O)O)CCN(CC(=O)O)CC6)CCN5C(=O)CNC(=O)C5(C(=O)O)CCN(C(=O)CCCCc6ccc(I)cc6)CC5)nn4)(C2)C3)s1.[Lu+3] | < 8.00
CC(CCC(=O)N[C@@H](CC(=O)N[C@@H](CC(=O)N1CCN(C(=O)CN2CCN(CC(=O)O)CCN(CC(=O)O)CCN(CC(=O)O)CC2)C[C@H]1C(=O)NCCn1cc(C23CC(c4cn5nc(S(N)(=O)=O)sc5n4)(C2)C3)nn1)C(=O)O)C(=O)O)(c1ccc(O)cc1)c1ccc(O)cc1.[Lu+3] | > 9.00

Ask: pKd of `NS(=O)(=O)c1nnc(NC(=O)C23CC(c4cn(CCNC(=O)[C@@H]5CN(C(=O)CN6CCN(CC(=O)O)CCN(CC(=O)O)CCN(CC(=O)O)CC6)CCN5C(=O)CNC(=O)C5(C(=O)O)CCN(C(=O)Cc6c[nH]nc6C(F)(F)F)CC5)nn4)(C2)C3)s1.[Lu+3]` on human CA-XII (Homo sapiens, UniProt O43570)?
Result: < 8.00

Ask: pKd of `NS(=O)(=O)c1nnc(NC(=O)C23CCC(c4cn(CCNC(=O)[C@@H]5CN(C(=O)CN6CCN(CC(=O)O)CCN(CC(=O)O)CCN(CC(=O)O)CC6)CCN5C(=O)CNC(=O)C5(C(=O)O)CCN(C(=O)CCC6CCCCC6)CC5)nn4)(CC2)CC3)s1.[Lu+3]` on human CA-XII (Homo sapiens, UniProt O43570)?
Result: > 9.00
